Below, each entry is listed alongside its reported melting point.

# example entries with known answers
INSERT INTO results (molecule, reported_measurement) VALUES
  ('CC(C)(Oc1ccc(NC(=O)Nc2cc(Cl)cc(Cl)c2)cc1)C(=O)O', '182 to 184 °C'),
  ('CC#CCOc1cc(OCC#CC)ncn1', '82.9 °C'),
  ('COC(=O)CCc1c[nH]c2ccccc12', '162 to 164 °C'),
  ('OCC1=CCN(Cc2ccccc2)CC1', '57 to 60 °C'),
  ('CCOC(=O)NCCC(c1cc(F)ccc1F)S(=O)(=O)c1ccc(Cl)cc1 (stereo unspecified)', '121 to 122 °C');

Continue with the molecule presented below.
Field request: melting point | item: `O=C(NN=CC(Cl)(Cl)Cl)c1cccc(Oc2cccc(C(F)(F)F)c2)n1` 81 to 82 °C

* * *

assay endpoint: melting point

INSERT INTO assay_data (compound, reported_measurement) VALUES
  ('CCC12CCC3C4CCC(=O)C=C4CCC3C1CCC2O (configuration not stated)', '147 to 149 °C'),
  ('Cc1c(OCc2ccccc2)c(=O)ccn1CC(=O)NCCCCNCCCNC(=O)Cn1ccc(=O)c(OCc2ccccc2)c1C', '89 °C'),
  ('Nc1ncnn1C(=S)NCCCCCO', '108 to 109 °C'),
  ('Clc1ccc(-c2nnc(Cl)s2)cc1', '125 to 127 °C'),
  ('CNC(=O)c1cc2c(nc(C)n2C)c2c1CCC(c1ccccc1)N2 (configuration not stated)', '259 °C'),
  ('CC(=O)N1CCc2c(sc(C)c2CCN2CCC(c3noc4cc(F)ccc34)CC2)C1', '70 to 75 °C'),
  ('CCCCCC(=O)N1CCc2nc3ccccc3c(C)c2CC1', '109 °C'),
  ('Nc1ccc(C(=S)N2CCCCC2)cc1', '162 to 164 °C');

Field request: melting point | item: `COC(=O)c1nc(N)ccc1O` 170 to 173 °C

Field request: melting point | item: NC1=NN(c2cccc(Cl)c2)C(c2ccccc2)C1 (configuration not stated) 164 to 165 °C

Field request: melting point | item: CCCCN(C)C(=O)CS(=O)CCCCCCOc1ccc(C2=C(c3ccccc3)CCCc3cc(O)ccc32)cc1 (configuration not stated) 72 to 73 °C

Field request: melting point | item: `CC1(C)OC(=O)Nc2ccc(Br)cc21` 199 to 200 °C

Field request: melting point | item: CC1CN(c2c(F)c(N)c3c(=O)c(C(=O)O)cn(C4CC4)c3c2F)CCN1 (configuration not stated) 251 to 253 °C

Field request: melting point | item: CC(C)(C)[Si](C)(C)N1C(=O)[C@@H](N2C(=O)c3ccccc3C2=O)[C@H]1/C=C/c1ccccc1 (relative stereo) 167 to 168 °C

Field request: melting point | item: `COc1cc2c(c(OC)c1OC)C(=O)c1c-2n(C)c(=O)c2ccccc12` 194 to 195 °C

Field request: melting point | item: `CCOC(=O)c1ccc(/C=C/C(=O)O)cn1` 201 to 202 °C

Field request: melting point | item: COc1ccc(C(CN(C)C)C2(O)C=CCCC2)cc1 (configuration not stated) 128 to 130 °C

Field request: melting point | item: `Cc1ccc2c(c1)NC(=O)CO2` 204 to 205 °C

Field request: melting point | item: c1ccc(C(CC2CC3CCN2CC3)c2ccccc2)cc1 (configuration not stated) 87.5 to 89 °C

Field request: melting point | item: `COc1cc(OCC(=O)O)c(C)cc1SCc1ccc(-c2cccc(C(F)(F)F)c2)cc1` 138 to 139 °C

Field request: melting point | item: `CC(C)CC[C@H](O)[C@H](CC1CCCCC1)NC(=O)[C@H](Cc1c[nH]cn1)NC(=O)OC(C)(C)C` 96 to 100 °C

Field request: melting point | item: CCOC(=O)C(Cc1cc2c([N+](=O)[O-])cccc2[nH]1)[N+](=O)[O-] (configuration not stated) 110 to 112 °C
